Exercise: for every item that follows, state its recorded percent of parent.
B1: MeV phosphoprotein (P), wild type [measles virus (strain IC-B)] / MeV L_(1708), C-terminally truncated large polymerase protein lacking the methyltransferase domain [measles virus (strain IC-B)] (parent complex)
chain 1: MAEEQARHVKNGLECIRALKAEPIGSLAVEEAMAAWSEISDNPGQDRATCKEEEAGSSGLSKPCLSAIGSTEGGAPRIRGQGSGESDDDAETLGIPSRNLQASSTGLQCYHVYDHSGEAVKGIQDADSIMVQSGLDGDSTLSGGDDESENSDVDIGEPDTEGYAITDRGSAPISMGFRASDVETAEGGEIHELLKLQSRGNNFPKLGKTLNVPPPPNPSRASTSETPIKKGTDARLASFGTEIASLLTGGATQCARKSPSEPSGPGAPAGNVPECVSNAALIQEWTPESGTTISPRSQNNEEGGDYYDDELFSDVQDIKTALAKIHEDNQKIISKLESLLLLKGEVESIKKQINRQNISISTLEGHLSSIMIAIPGLGKDPNDPTADVELNPDLKPIIGRDSGRALAEVLKKPVASRQLQGMTNGRTSSRGQLLKEFQLKPIGKKVSSAVGFVPDTGPASRSVIRSIIKSSRLEEDRKRYLMTLLDDIKGANDLAKFHQMLMKIIMK
chain 2: MDSLSVNQILYPEVHLDSPIVTNKIVAILEYARVPHAYSLEDPTLCQNIKHRLKNGFSNQMIINNVEVGNVIKSKLRSYPAHSHIPYPNCNQDLFNIEDKESTRKIRELLKKGNSLYSKVSDKVFQCLRDTNSRLGLGSELREDIKEKIINLGVYMHSSQWFEPFLFWFTVKTEMRSVIKSQTHTCHRRRHTPVFFTGSSVELLISRDLVAIISKESQHVYYLTFELVLMYCDVIEGRLMTETAMTIDARYAELLGRVRYMWKLIDGFFPALGNPTYQIVAMLEPLSLAYLQLRDITVELRGAFLNHCFTEIHDVLDQNGFSDEGTYHELIEALDYIFITDDIHLTGEIFSFFRSFGHPRLEAVTAAENVRKYMNQPKVIVYETLMKGHAIFCGIIINGYRDRHGGSWPPLTLPLHAADTIRNAQASGEGLTHEQCVDNWKSFAGVRFGCFMPLSLDSDLTMYLKDKALAALQREWDSVYPKEFLRYDPPKGTGSRRLVDVFLNDSSFDPYDMIMYVVSGAYLHDPEFNLSYSLKEKEIKETGRLFAKMTYKMRACQVIAENLISNGIGKYFKDNGMAKDEHDLTKALHTLAVSGVPKDLKESHRGGPVLKTYSRSPVHTSTRNVKAEKGFVGFPHVIRQNQDTDHPENIETYETVSAFITTDLKKYCLNWRYETISLFAQRLNEIYGLPSFFQWLHKRLETSVLYVSDPHCPPDLDAHVPLCKVPNDQIFIKYPMGGIEGYCQKLWTISTIPYLYLAAYESGVRIASLVQGDNQTIAVTKRVPSTWPYNLKKREAARVTRDYFVILRQRLHDIGHHLKANETIVSSHFFVYSKGIYYDGLLVSQSLKSIARCVFWSETIVDETRAACSNIATTMAKSIERGYDRYLAYSLNVLKVIQQILISLGFTINSTMTRDVVIPLLTNNDLLIRMALLPAPIGGMNYLNMSRLFVRNIGDPVTSSIADLKRMILASLMPEETLHQVMTQQPGDSSFLDWASDPYSANLVCVQSITRLLKNITARFVLIHSPNPMLKGLFHDDSKEEDERLAAFLMDRHIIVPRAAHEILDHSVTGARESIAGMLDTTKGLIRASMRKGGLTSRVITRLSNYDYEQFRAGMVLLTGRKRNVLIDKESCSVQLARALRSHMWARLARGRPIYGLEVPDVLESMRGHLIRRHETCVICECGSVNYGWFFVPSGCQLDDIDKETSSLRVPYIGSTTDERTDMKLAFVRAPSRSLRSAVRIATVYSWAYGDDDSSWNEAWLLARQRANVSLEELRVITPISTSTNLAHRLRDRSTQVKYSGTSLVRVARYTTISNDNLSFVISDKKVDTNFIYQQGMLLGLGVLETLFRLEKDTGSSNTVLHLHVETDCCVIPMIDHPRIPSSRKLELRAELCTNPLIYDNAPLIDRDATRLYTQSHRRHLVEFVTWSTPQLYHILAKSTALSMIDLVTKFEKDHMNEISALIGDDDINSFITEFLLIEPRLFTIYLGQCAAINWAFDVHYHRPSGKYQMGELLSSFLSRMSKGVFKVLVNALSHPKIYKKFWHCGIIEPIHGPSLDAQNLHTTVCNMVYTCYMTYLDLLLNEELEEFTFLLCESDEDVVPDRFDNIQAKHLCVLADLYCQPGTCPPIRGLRPVEKCAVLTDHIKAEARLSPAGSSWNINPIIVDHYSCSLTYLRRGSIKQIRLRVDPGFIFDALAEVNVSQPKVGSN

Variants of: B1
Method Description: co-immunoprecipitation (IP anti-HA of P, immunoblot of L anti-FLAG, densitometry); lysates of transiently transfected cells, lysed 24 hours after transfection; IP at 4°C; parent: 100; read off a plot

Need percent of parent of chain 1 L363A , thanks.
~38 % of wild type P

Try the variant chain 1 L363A, chain 1 E364A
~20 % of wild type P

Now try chain 1 S361A, chain 1 T362A .
~95 % of wild type P

chain 1 S361A ?
~85 % of wild type P

Another variant: chain 1 E364A
~44 % of wild type P
